Each entry below carries its reported EC50.
molecular target: hCB1 receptor (Homo sapiens, UniProt P21554); test: functional [35S]GTPγS hCB1 activation assay; format: biochemical
Sequence (P21554 whole entry): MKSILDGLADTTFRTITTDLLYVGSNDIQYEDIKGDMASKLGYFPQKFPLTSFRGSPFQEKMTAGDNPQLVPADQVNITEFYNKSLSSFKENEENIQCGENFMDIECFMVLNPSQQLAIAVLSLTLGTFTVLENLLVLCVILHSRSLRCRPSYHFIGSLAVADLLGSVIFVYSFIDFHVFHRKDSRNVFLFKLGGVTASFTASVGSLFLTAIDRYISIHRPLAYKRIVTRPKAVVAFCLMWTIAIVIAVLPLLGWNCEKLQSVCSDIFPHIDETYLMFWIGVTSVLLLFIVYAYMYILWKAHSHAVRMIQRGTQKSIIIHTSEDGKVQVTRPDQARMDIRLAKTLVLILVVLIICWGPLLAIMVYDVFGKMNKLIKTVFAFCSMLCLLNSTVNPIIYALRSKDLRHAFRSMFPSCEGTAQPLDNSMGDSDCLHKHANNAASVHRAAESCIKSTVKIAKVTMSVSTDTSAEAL

molecule | display-unit | EC50
CC(C)(C)C(NC(=O)c1nn(CC2CCCCC2)c2ccccc12)C(N)=O (stereo not shown) | nM | 0.467
O=C(Oc1cccc2cccnc12)c1cn(CCCCCF)c2ccccc12 | nM | 2.73
COC(=O)C(NC(=O)c1cn(CC2CCCCC2)c2ccccc12)C(C)(C)C (stereo not shown) | nM | 11.8
COC(=O)C(NC(=O)c1cn(CCCCF)c2ccccc12)C(C)(C)C (stereo not shown) | nM | 137
CCCCCn1cc(C(=O)c2ccc(CC)c3ccccc23)c2ccccc21 | nM | 41.9
C=CCCCn1nc(C(=O)NC(C(=O)OC)C(C)(C)C)c2ccccc21 (stereo not shown) | nM | 13.4
CCCCCn1c2ccccc2c2c(=O)n(C(C)(C)c3ccccc3)ccc21 | nM | 12.4
COC(=O)C(NC(=O)c1nn(CCCCCF)c2ccccc12)C(C)(C)C (stereo not shown) | nM | 1.95
CC(C)(c1ccccc1)n1ccc2c(c1=O)c1ccccc1n2CCCCCF | nM | 1.64
CC(C)C(NC(=O)c1nn(Cc2ccc(F)cc2)c2ccccc12)C(N)=O (stereo not shown) | nM | 17.5
COC(=O)C(NC(=O)c1cn(CCCCCF)c2ccccc12)C(C)(C)C (stereo not shown) | nM | 7.88
CC(C)C(NC(=O)c1nn(CC2CCCCC2)c2ccccc12)C(N)=O (stereo not shown) | nM | 5.09
CCCCCn1cc(C(=O)c2cccc3ccccc23)c2ccccc21 [JWH‐018, reference compound] | nM | 38.6

Every entry's value here was drawn from paper PMC12980303.
